Quick reference for SK-Br-3 proliferation IC50 among some binders
targetSystem: human HER3 endogenously expressed on human cancer cells (SK-Br-3, BT-474, MCF7) (human, UniProt P21860 20-1342)
testSummary: cell-based or functional assay
measurementType: SK-Br-3 proliferation IC50 (pM)

binder: MOR12514 (antibody, human IgG1, lambda, V domains shown, Tested as IgG) VH: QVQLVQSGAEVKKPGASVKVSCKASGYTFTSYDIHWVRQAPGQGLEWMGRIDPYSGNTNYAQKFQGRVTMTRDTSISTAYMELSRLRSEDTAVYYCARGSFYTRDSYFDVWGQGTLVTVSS VL: DIALTQPASVSGSPGQSITISCTGTSSDVGTYNQVSWYQQHPGKAPKLMIYGVSKRPSGVSNRFSGSKSGNTASLTISGLQAEDEADYYCQVRDMSLFDVFGGGTKLTVLG
measurementType: SK-Br-3 proliferation IC50
units: pM
number: 44

binder: MOR12605 (antibody, human IgG1, kappa, V domains shown, Tested as IgG) VH: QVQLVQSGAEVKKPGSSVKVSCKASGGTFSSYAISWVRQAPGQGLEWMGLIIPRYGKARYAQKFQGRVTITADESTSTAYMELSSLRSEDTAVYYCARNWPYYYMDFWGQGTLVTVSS VL: DIVLTQSPATLSLSPGERATLSCRASQNIVFNLAWYQQKPGQAPRLLIYDASNRATGVPARFSGSGSGTDFTLTISSLEPEDFAVYYCQQFRRKSNTFGQGTKVEIKR
measurementType: SK-Br-3 proliferation IC50
units: pM
number: 0.01

binder: MOR12604 (antibody, V domains shown, Tested as IgG) VH: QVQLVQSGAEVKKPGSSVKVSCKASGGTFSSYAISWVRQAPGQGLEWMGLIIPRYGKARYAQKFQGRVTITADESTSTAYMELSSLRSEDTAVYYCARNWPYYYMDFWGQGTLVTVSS VL: DIVLTQSPATLSLSPGERATLSCRASQNIVFNLAWYQQKPGQAPRLLIYDASNRATGVPARFSGSGSGTDFTLTISSLEPEDFAVYYCQQKKSMPLTFGQGTKVEIKR
measurementType: SK-Br-3 proliferation IC50
units: pM
number: 15

Data origin: patent US20130251703A1
